tested on: CCRIS mutagenicity, Ames/micronucleus/aberration tests; assay: CCRIS mutagenicity studies; conditions: Test System: AMES SALMONELLA TYPHIMURIUM; Strain/Indicator: TA100; Metabolic Activation: RAT, LIVER, S-9, AROCLOR 1254; Method: STANDARD PLATE
The source made the active and inactive calls. How the calls were made is not given here. Where a SMILES comes first, the peptide text is derived from it.
Outcome codes: active, inactive

>  <COMPOUND>
O=Cc1c2ccccc2cc2ccccc12

>  <GROUP>
inactive

$$$$
>  <COMPOUND>
N#CC(Cl)(Cl)Cl

>  <GROUP>
inactive

$$$$
>  <COMPOUND>
CN(C)c1ccc(N=Nc2ccccc2)cc1

>  <GROUP>
active

$$$$
>  <COMPOUND>
NCCCC[C@H](NC(=O)[C@H](Cc1c[nH]c2ccccc12)NC(=O)[C@@H](N)CCCCN)C(=O)O (H-Lys-Trp-Lys-OH)

>  <GROUP>
inactive

$$$$
>  <COMPOUND>
Nc1ccc2c(c1)Cc1cc(N)ccc1-2

>  <GROUP>
active

$$$$
>  <COMPOUND>
CC(C)N(C(=O)SC/C(Cl)=C/Cl)C(C)C

>  <GROUP>
active

$$$$
>  <COMPOUND>
Nc1ccc(N)cc1

>  <GROUP>
inactive

$$$$
